These entries and their values trace back to PubChem BioAssay AID1159580.

Provide the reported normalized growth of each item.
# Assay Explanation: chemical genetic growth profiling, strain panel (AID 1159580);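 further: tested at 20 µM; growth read once vehicle control cultures reached saturation at 30 °C; 1 = growth at the plate median or of vehicle wells; lower values mean less growth of the strain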
# Experimental Context: S. cerevisiae deletion strains, growth OD, locus YGL240W, strain doc1, hits give low values
Out of some 5,500 compounds screened, about 2,000 (36%) were called active. Not shown: some 18% with an inconclusive outcome. Some of the results follow.
One number for each entry.

Please review the entries below; each comes with its answer.
[
  {
    "Compound": "CC(CC(C(N)=O)(c1ccccc1)c1ccccc1)N(C)C (stereo not given)",
    "Result": 0.981
  },
  {
    "Compound": "C=C[C@H]1CN2CC[C@H]1C[C@@H]2[C@@H](OC(=O)OCC)c1ccnc2ccc(OC)cc12",
    "Result": 1.01
  },
  {
    "Compound": "CC(C)[N+](C)(CCC(C(N)=O)(c1ccccc1)c1ccccc1)C(C)C",
    "Result": 1
  },
  {
    "Compound": "CCN[C@@H]1C[C@H](N)[C@@H](O[C@H]2OC(CN)=CC[C@H]2N)[C@H](O)[C@H]1OC1OC[C@](C)(O)[C@H](NC)[C@H]1O (stereo not given in full)",
    "Result": 1.01
  }
]

--- query ---
Per the record, CN[C@@H]1[C@@H](O)C(OC2[C@@H](N)C[C@@H](N)[C@H](O[C@H]3O[C@H](C(C)O)[C@@H](O)[C@H](O)[C@H]3N)[C@H]2O)OC[C@]1(C)O (stereo not given in full) has normalized growth of 0.977

* * *

# Assay Explanation: chemical genetic growth profiling, strain panel (AID 1159580);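 further: tested at 20 µM; growth read once vehicle control cultures reached saturation at 30 °C; 1 = growth at the plate median or of vehicle wells; lower values mean less growth of the strain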
# Experimental Context: S. cerevisiae deletion strains, growth OD, locus YJL095W, strain BCK1, hits give low values
Out of some 5,500 compounds screened, about 2,000 (36%) were called active. Not shown: some 18% with an inconclusive outcome. The list shows a part of the results.
Binary call on normalized growth with cut-off 1: strictly below means condition met, and equality or higher means condition not met.

Example cases with answers are listed next.
[
  {
    "Molecule": "COc1ccc(-c2oc3cc(O[C@H]4O[C@H](CO)[C@@H](O)[C@H](O)[C@H]4O)c(OC)c(O)c3c(=O)c2OC)cc1O",
    "Classification": "condition met"
  },
  {
    "Molecule": "CC12CCC3c4ccc(OCc5ccccc5)cc4CCC3C1C[C@@H](O)[C@@H]2O (stereo not given in full)",
    "Classification": "condition met"
  },
  {
    "Molecule": "COc1ccccc1/C=C\\C(=O)O",
    "Classification": "condition not met"
  },
  {
    "Molecule": "COC1=CC(=O)C(O)=C/C1=C\\C=C\\c1ccccc1",
    "Classification": "condition met"
  }
]

Prompt line: Consider Cc1ccc(C)n1-c1ccc(/C=C2/C(=O)Nc3ccccc32)cc1 . Does its normalized growth lie strictly below 1?
Response line: condition met

Prompt line: Consider O=C1Nc2ccccc2/C1=C/c1ccc(Oc2ccccc2)nc1 . Does its normalized growth lie strictly below 1?
Response line: condition met

* * *

Provide the reported normalized growth of each item.
# Assay Explanation: chemical genetic growth profiling, strain panel (AID 1159580);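 further: tested at 20 µM; growth read once vehicle control cultures reached saturation at 30 °C; 1 = growth at the plate median or of vehicle wells; lower values mean less growth of the strain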
# Experimental Context: S. cerevisiae deletion strains, growth OD, locus YDR226W, strain ADK1, hits give low values
About 2,000 (36%) of roughly 5,500 compounds were called active. Roughly 18% stayed inconclusive and do not appear here. This is one part of the list.
Answers are plain numbers.

Please review the entries below; each comes with its answer.
[
  {
    "Compound": "O=C1Nc2ccccc2/C1=C\\c1cccc([N+](=O)[O-])c1",
    "Result": 0.969
  },
  {
    "Compound": "CC(C)(C)NC(=S)N/N=C\\c1ccccc1O",
    "Result": 0.961
  },
  {
    "Compound": "Cc1cc(Cl)ccc1NNC(=O)c1sccc1Br",
    "Result": 0.922
  },
  {
    "Compound": "OC(COc1ccc(F)cc1)(c1ccccc1)c1ccccc1",
    "Result": 0.955
  }
]

Hi there! I need normalized growth for each item below, if you can.
1. O/N=C(/c1ccc(Cl)cc1)c1cc2ccccc2o1
2. Cc1c(C)c(C)c(C(O)c2ccccc2)c(C)c1C (centres undefined)
3. Cc1cc(Cl)ccc1NNC(=O)c1sccc1Cl
4. COc1cc(Br)cc(C=Nc2ccc(Sc3ccccc3)nc2Sc2ccccc2)c1O
5. COCCCNC(=S)N/N=C\c1cc(Br)ccc1O
6. FC(F)(F)c1cccc(NC(=S)NN=C2CCCCCC2)c1
7. O=C1Nc2ccccc2/C1=C\c1c(Cl)cccc1Cl

Response line:
[0.916, 0.993, 0.894, 0.964, 0.96, 0.978, 0.963]

Hi there! I need normalized growth for each item below, if you can.
1. c1ccc(-c2nnc(-c3ccccn3)nc2-c2ccccc2)cc1
2. O=C1Nc2ccccc2/C1=C/c1ccc(C(F)(F)F)cc1Cl
3. CC(NC(=S)N/N=C\c1ccccc1O)c1ccccc1 (centres undefined)

Response line:
1. 0.924
2. 0.961
3. 0.97
